Catalogue of binding signal readings, one per entry.
target: GST-WRKY1(266-371) (Arabidopsis thaliana, UniProt Q9SI37 266-371); test: universal protein binding microarray (PBM); transcription factors of Arabidopsis thaliana; high values mean tight binding; details: protein: recombinant; tags: GST; dsDNA, one strand shown
Sequence (Q9SI37 266-371): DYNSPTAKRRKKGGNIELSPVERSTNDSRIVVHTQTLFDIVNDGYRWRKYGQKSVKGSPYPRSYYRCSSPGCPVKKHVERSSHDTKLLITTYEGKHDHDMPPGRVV
All answers are understood in E-score, so give the number only.

Record excerpt, results attached:
seq	binding signal / E-score
ACGCGACC	0.342
TAGTCAAA	0.477

With GST-WRKY1(266-371) (Arabidopsis thaliana, UniProt Q9SI37 266-371) as the test system, CAGGTCAA showed binding signal of 0.484

With GST-WRKY1(266-371) (Arabidopsis thaliana, UniProt Q9SI37 266-371) as the test system, AGTCTGAC showed binding signal of 0.422
